Entries and their inhibition at 280.212 g/ha
- Tested on: Velvetleaf
- testMethodNotes: pre-emergence herbicide test
- Format: in vivo
- testConditions: Abutilon theophrasti, pre-emergence, 0.25 lb/A; read-out: % plant inhibition
recordedEndpoint: inhibition at 280.212 g/ha (%)

Cc1c(-c2ccc(Cl)cc2)nn(C)c1C(F)(F)F = 0
Cc1c(-c2cc(C(=O)OCC(=O)c3ccccc3)c(Cl)cc2F)nn(C)c1C(F)(F)F = 65
Cc1c(-c2cc(C(=O)OCSC#N)c(Cl)cc2F)nn(C)c1C(F)(F)F = 40

* * *

Entries and their inhibition at 280.212 g/ha
- Test system: Morning Glory
- testMethodNotes: post-emergence herbicide test
- Type: in vivo
- testConditions: Ipomoea, post-emergence, 0.25 lb/A; read-out: % plant inhibition
recordedEndpoint: inhibition at 280.212 g/ha (%)

CCCCCCCCCCCCOC(=O)c1cc(-c2nn(C)c(C(F)(F)F)c2C)c(F)cc1Cl [Compound 49] = 5
CCOC(=O)c1cc(-c2nn(C)c(C(F)(F)F)c2C)c(F)cc1Cl [Compound 26] = 50
Cc1c(-c2cc(CBr)c(Cl)cc2F)nn(C)c1C(F)(F)F [Compound 10] = 35
CCC(C)OC(=O)c1cc(-c2nn(C)c(C(F)(F)F)c2C)c(F)cc1Cl (stereo not drawn) [Compound 58] = 100
COCC(C)OC(=O)c1cc(-c2nn(C)c(C(F)(F)F)c2C)c(F)cc1Cl (stereo not drawn) [Compound 52] = 99
Cc1c(-c2cc(CSCC(C)C)c(Cl)cc2F)nn(C)c1C(F)(F)F [Compound 32] = 40
CC(C)OC(=O)c1cc(-c2nn(C)c(C(F)(F)F)c2CO)c(F)cc1Cl [Compound 14] = 85
Cc1c(-c2cc(C(=O)OCc3ccco3)c(Cl)cc2F)nn(C)c1C(F)(F)F [Compound 57] = 50
COCCOC(=O)c1cc(-c2nn(C)c(C(F)(F)F)c2C)c(F)cc1Cl [Compound 56] = 80
Cc1c(-c2cc(C(=O)OCC(=O)c3ccccc3)c(Cl)cc2F)nn(C)c1C(F)(F)F [Compound 43] = 75
Cc1c(-c2cc(C(N)=O)c(Cl)cc2F)nn(C)c1C(F)(F)F [Compound 21] = 90
CCOC(=O)CCCOC(=O)c1cc(-c2nn(C)c(C(F)(F)F)c2C)c(F)cc1Cl [Compound 24] = 75

* * *

- Test system: Rape
- testMethodNotes: pre-emergence herbicide test
- Type: in vivo
- testConditions: pre-emergence, 0.25 lb/A; read-out: % plant inhibition
Entries and their inhibition at 280.212 g/ha
recordedEndpoint: inhibition at 280.212 g/ha

Cc1c(-c2cc(C(=O)O)c(Cl)cc2F)nn(C)c1C(F)(F)F = 20%
CCOC(=O)C=C(COC(=O)c1cc(-c2nn(C)c(C(F)(F)F)c2C)c(F)cc1Cl)OC = 20%
CCOC(=O)COC(=O)c1cc(-c2nn(C)c(C(F)(F)F)c2C)c(F)cc1Cl = 90%
COCCOC(=O)c1cc(-c2nn(C)c(C(F)(F)F)c2C)c(F)cc1Cl = 5%
Cc1c(-c2cc(C(=O)OCc3ccco3)c(Cl)cc2F)nn(C)c1C(F)(F)F = 0%
C#CCOC(=O)c1cc(-c2nn(C)c(C(F)(F)F)c2C)c(F)cc1Cl = 5%
